Hey, just so you know, these numbers are from PubChem BioAssay (EPA / NIEHS).

biological target: Signal transducer and activator of transcription 3 (Homo sapiens) (UniProt P40763); experiment: ATG_STAT3_CIS: Attagene CIS-FACTORIAL HepG2 Assay for human Signal Transducer and Activator of Transcription 3 (STAT3) (AID 2282963); conditions: HepG2, Attagene cis-factorial STAT3 reporter transcription; actives raise or lower the signal
Sequence (P40763 whole entry, looked up): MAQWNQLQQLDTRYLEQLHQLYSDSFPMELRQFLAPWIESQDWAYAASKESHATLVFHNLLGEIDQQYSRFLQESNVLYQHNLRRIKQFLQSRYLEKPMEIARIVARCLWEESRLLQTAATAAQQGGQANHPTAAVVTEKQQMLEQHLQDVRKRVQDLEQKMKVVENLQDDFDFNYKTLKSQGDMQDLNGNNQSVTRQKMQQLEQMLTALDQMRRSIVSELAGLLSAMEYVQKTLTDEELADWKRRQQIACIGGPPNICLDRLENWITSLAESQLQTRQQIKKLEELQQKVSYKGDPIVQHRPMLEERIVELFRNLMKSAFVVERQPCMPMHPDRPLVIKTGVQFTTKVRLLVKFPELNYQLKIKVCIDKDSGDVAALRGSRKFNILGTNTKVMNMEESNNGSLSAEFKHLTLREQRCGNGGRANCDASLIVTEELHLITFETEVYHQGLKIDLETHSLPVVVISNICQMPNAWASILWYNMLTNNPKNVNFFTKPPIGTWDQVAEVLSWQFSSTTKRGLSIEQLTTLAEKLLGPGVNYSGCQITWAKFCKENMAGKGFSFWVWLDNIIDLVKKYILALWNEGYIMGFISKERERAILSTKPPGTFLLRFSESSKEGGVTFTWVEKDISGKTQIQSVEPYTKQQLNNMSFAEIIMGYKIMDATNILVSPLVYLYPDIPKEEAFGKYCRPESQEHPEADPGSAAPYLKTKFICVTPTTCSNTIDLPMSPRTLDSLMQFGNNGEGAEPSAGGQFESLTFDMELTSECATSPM
The source made the active and inactive calls. Rule for the calls: active = hit-call score of the fitted dose curve at least 0.9, where 1 is the maximum; inactive = score below 0.9.
Bench note: report the call from true (active), false (inactive)

Take a look at these entries with their results.
compound: CCC(Cc1c(I)cc(I)c(N)c1I)C(=O)O (stereo not drawn)
groupLabel: false

compound: CC(C)OC=O
groupLabel: false

compound: O=C(O)C(F)(F)C(F)(F)C(F)(F)C(=O)O
groupLabel: false

Hey, what did the test say about CC(=O)CCC(C)C ?
false

Hey, what did the test say about Cc1cc(O)c(C(C)(C)C)cc1C(C)(C)C ?
false

###

test: ATG_TGFb_CIS: Attagene CIS-FACTORIAL HepG2 Assay for human Transforming Growth Factor (TGF) (AID 2282967); settings: HepG2 Attagene CIS TGFb reporter, mRNA transcription; actives raise or lower the signal
Calls of active or inactive are those of the source. The calls were made as follows: active = hit-call score of the fitted dose curve at least 0.9, where 1 is the maximum; inactive = score below 0.9.
Bench note: report the call from label 1 = active, label 0 = inactive

Take a look at these entries with their results.
compound: F[Si-2](F)(F)(F)(F)F
groupLabel: label 0
//
compound: Nc1cccnc1N
groupLabel: label 0
//
compound: Cc1ccc2c(c1)OCC(=O)CO2
groupLabel: label 0
//
compound: CCOC(=O)C1CC(=O)C(=C(O)C2CC2)C(=O)C1 (centres undefined)
groupLabel: label 0
//
compound: C=CC(=O)OCC(F)(F)C(F)(F)C(F)(F)C(F)(F)C(F)(F)C(F)(F)C(F)(F)C(F)F
groupLabel: label 0
//
compound: Nc1cc([N+](=O)[O-])cc(Cl)c1O
groupLabel: label 0

Now look at this entry.
Hey, what did the test say about CCn1c2ccccc2c2ccccc21 ?
label 1

###

read-out: Vascular cell adhesion molecule 1 (VCAM1), VCAM1 (gene 7412); assay: BSK_LPS_VCAM1: BioMAP Diversity Plus: LPS Assay for Vascular cell adhesion molecule 1 (VCAM1) Biomarker Activity (AID 2283086); conditions: primary human HUVEC with PBMC; actives raise or lower the signal
Activity calls are given as the source filed them. Rule for the calls: active = hit-call score of the fitted dose curve at least 0.9, where 1 is the maximum; inactive = score below 0.9.
Bench note: report the call from true (1) (active), false (0) (inactive)

compound: NC(O)(C(F)(F)F)C(F)(F)F
groupLabel: false (0)

Hey, what did the test say about OCC(F)(F)C(F)(F)C(F)(F)C(F)(F)C(F)(F)C(F)(F)C(F)(F)C(F)(F)CO ?
false (0)

Hey, what did the test say about O=C(O)C(F)(F)C(F)(F)C(F)(F)C(F)(F)C(F)(F)C(F)(F)C(F)F ?
false (0)

###

experiment: CCTE_Harrill_HTTr_CellCount_MCF7: CCTE's Cell Proliferation Assessment for the High-Throughput Transcriptomics (HTTr) Platform, Harrill Lab (AID 2284012);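 note: count of Hoechst-stained nuclei per well by high-content imaging in MCF-7 cells; cells exposed to compound for six hours; intended direction is loss of nuclei count meaning fewer cells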
Records with an inconclusive call do not appear. Calls of active or inactive are those of the source. Rule for the calls: active = hit-call score of the fitted dose curve at least 0.9, where 1 is the maximum; inconclusive = response in the unintended direction; inactive = score below 0.9.
Bench note: report the call from 1 = active, -1 = inactive

smilesData: CC(=O)CCC(C)C
groupLabel: -1
--
smilesData: CCCCCCCC/C=C\CCCCCCCC(=O)N(C)CC(=O)O
groupLabel: -1
--
smilesData: CC1CCCCC1
groupLabel: -1
--
smilesData: Cc1cc(=O)[nH]c(C(C)C)n1
groupLabel: -1

Hey, what did the test say about CC(C)(C)c1cc(CCC(=O)OCC(COC(=O)CCc2cc(C(C)(C)C)c(O)c(C(C)(C)C)c2)(COC(=O)CCc2cc(C(C)(C)C)c(O)c(C(C)(C)C)c2)COC(=O)CCc2cc(C(C)(C)C)c(O)c(C(C)(C)C)c2)cc(C(C)(C)C)c1O ?
-1

Hey, what did the test say about Cc1cnccn1 ?
-1

Hey, what did the test say about CSc1ccc(O)cc1C ?
-1

Hey, what did the test say about CN(N=O)C(=O)N[C@@H]1[C@@H](O)[C@H](O)[C@@H](CO)O[C@@H]1O ?
-1

Hey, what did the test say about CCN=C1C=CC(=C(c2ccc(N(CC)CC)cc2)c2ccc(N(CC)CC)cc2)c2ccccc21 ?
1

###

Read-out: CD69, CD69 (gene 969)
Test: BSK_IMphg_CD69: BioMAP Diversity Plus: IMphg Assay for CD69 Biomarker Activity (AID 2284257)
Details: primary human endothelial cells with macrophages
Procedure: BSK_IMphg is a cell-based, multiplexed-readout assay that uses venular endothelial cells and macrophages, a human vascular primary cell, with measurements taken at 24 hours after chemical dosing in a microplate: 96-well plate.BSK_IMphg_CD69 is an assay component measured in the BSK_IMphg assay. […] The levels of cell surface (or secreted, indicated by the prefix "s") biomarker endpoints were measured by ELISA. […] Plates were read after 6 h.
Activity calls are given as the source filed them. Rule for the calls: active = hit-call score of the fitted dose curve at least 0.9, where 1 is the maximum; inactive = score below 0.9.
reportedMetric: outcome

Some molecules with recorded outcome:
molecule: O=C(O)C(F)(F)C(F)(F)C(F)(F)OC(F)(F)F
reportedMeasurement: inactive
//
molecule: O=C(O)C(F)(F)C(F)(F)C(F)(F)C(F)(F)C(F)(F)C(F)(F)C(F)F
reportedMeasurement: inactive
//
molecule: O=C(O)C(F)(F)OC(F)(F)C(F)(F)OC(F)(F)C(F)(F)OC(F)(F)F
reportedMeasurement: inactive
//
molecule: OCC(F)(F)C(F)(F)C(F)(F)CO
reportedMeasurement: inactive
//
molecule: NC(=O)C(F)(F)C(F)(F)C(F)(F)C(F)(F)C(N)=O
reportedMeasurement: inactive

Requested read-out: outcome. Entry: FC(F)(F)C(F)(F)C(F)(F)C(F)(F)C(F)(F)C(F)(F)C(F)(F)CCI
inactive

Requested read-out: outcome. Entry: COC(F)(C(F)F)C(F)(F)F (stereo not drawn)
inactive

Requested read-out: outcome. Entry: O=S(=O)(O)CCC(F)(F)C(F)(F)C(F)(F)C(F)(F)F
inactive

###

target: Hepatocyte nuclear factor 6 (Homo sapiens); test: ATG_HNF6_CIS: Attagene CIS-FACTORIAL HepG2 Assay for human Hepatocyte Nuclear Factor 6 (HNF6) (AID 2282952); settings: HepG2 Attagene cis-factorial HNF6 reporter transcription; actives raise or lower the signal
The source made the active and inactive calls. The calls were made as follows: active = hit-call score of the fitted dose curve at least 0.9, where 1 is the maximum; inactive = score below 0.9.
Bench note: report the call from y = active, n = inactive

Take a look at these entries with their results.
compound: CCC(=O)OC(C)c1ccccc1 (stereo unspecified)
groupLabel: n
--
compound: CCC/C=C/CO
groupLabel: n
--
compound: FC(F)(F)C(F)(F)C(F)(F)CC1CO1 (stereo unspecified)
groupLabel: n
--
compound: OCC(F)(F)C(F)(F)C(F)(F)C(F)(F)C(F)(F)C(F)(F)C(F)(F)C(F)(F)CO
groupLabel: n
--
compound: COc1ccccc1C=O
groupLabel: n
--
compound: CCN=c1cc2oc3cc(NCC)c(C)cc3c(-c3ccccc3C(=O)OCC)c-2cc1C
groupLabel: n

Now look at this entry.
Hey, what did the test say about CCCCCCCCCCCCC[N+](C)(C)Cc1ccccc1 ?
n

###

assay: CEETOX_H295R_TESTO: CeeTox H295R High-throughput Steroidogenesis Assay for Testosterone (TESTO) (AID 2283457); details: actives raise or lower the signal
Activity calls are given as the source filed them. Rule for the calls: active = hit-call score of the fitted dose curve at least 0.9, where 1 is the maximum; inactive = score below 0.9.
Bench note: report the call from T = active, F = inactive

Take a look at these entries with their results.
smilesData: CCn1c2ccccc2c2ccccc21
groupLabel: T
--
smilesData: C[C@]12CC[C@H]3C(=CCc4cc(O)ccc43)[C@@H]1CCC2=O
groupLabel: T
--
smilesData: CCN(CC)c1ccc(C=O)cc1
groupLabel: F

Hey, what did the test say about O=C(c1ccccc1)c1ccc(Cl)cc1 ?
F

Hey, what did the test say about CCN(CC)c1ccc(N=Nc2ccccc2)cc1 ?
F

Hey, what did the test say about Cc1cc(O)c(C(C)(C)C)cc1C(C)(C)C ?
F

###

biological target: Androgen Receptor/SRC-1 Co-activator, AR (gene 367) (UniProt P10275); experiment: OT_AR_ARSRC1_0480: Odyssey Thera (OT) 8-hour HEK293T Protein-Complementation Assay for Androgen Receptor/SRC-1 Co-activator (AID 2283354);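 note: hits raise the complementation signal above DMSO so AC50 marks enhancers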
Sequence (P10275 whole entry, looked up): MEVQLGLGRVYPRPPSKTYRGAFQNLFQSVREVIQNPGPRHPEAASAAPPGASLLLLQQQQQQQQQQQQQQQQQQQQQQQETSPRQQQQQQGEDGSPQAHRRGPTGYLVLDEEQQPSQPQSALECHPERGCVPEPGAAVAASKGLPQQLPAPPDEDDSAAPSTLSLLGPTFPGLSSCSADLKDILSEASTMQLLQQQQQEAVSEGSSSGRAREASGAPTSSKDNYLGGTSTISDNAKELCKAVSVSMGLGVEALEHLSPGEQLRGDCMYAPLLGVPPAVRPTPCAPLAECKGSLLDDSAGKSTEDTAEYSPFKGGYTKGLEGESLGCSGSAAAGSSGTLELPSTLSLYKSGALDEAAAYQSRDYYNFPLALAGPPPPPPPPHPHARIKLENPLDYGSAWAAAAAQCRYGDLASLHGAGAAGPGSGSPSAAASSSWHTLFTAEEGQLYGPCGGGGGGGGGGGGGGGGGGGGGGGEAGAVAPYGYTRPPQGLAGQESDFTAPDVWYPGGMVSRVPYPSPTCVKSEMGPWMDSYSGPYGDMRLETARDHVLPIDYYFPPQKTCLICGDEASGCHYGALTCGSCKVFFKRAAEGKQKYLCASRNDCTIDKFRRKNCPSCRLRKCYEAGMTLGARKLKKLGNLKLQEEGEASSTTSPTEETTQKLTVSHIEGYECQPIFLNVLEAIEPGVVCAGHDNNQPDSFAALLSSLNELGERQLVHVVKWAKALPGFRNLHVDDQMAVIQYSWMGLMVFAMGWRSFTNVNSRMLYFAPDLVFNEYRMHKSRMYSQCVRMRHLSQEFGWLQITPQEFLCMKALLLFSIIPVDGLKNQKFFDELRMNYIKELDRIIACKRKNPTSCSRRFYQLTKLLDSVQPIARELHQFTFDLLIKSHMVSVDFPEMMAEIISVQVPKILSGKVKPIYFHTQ
Records with an inconclusive call do not appear. Calls of active or inactive are those of the source. Rule for the calls: active = hit-call score of the fitted dose curve at least 0.9, where 1 is the maximum; inconclusive = response in the unintended direction; inactive = score below 0.9.
This listing pairs compounds with measured AC50.

Some compounds with recorded AC50:
smilesData: CCCCCCCCCc1ccc(OCCO)cc1
AC50: 25.4 µM (active)
--
smilesData: CCCCCCCCCCCCC[N+](C)(C)Cc1ccccc1
AC50: 14.6 µM (active)

Requested read-out: AC50. Entry: CCN=c1cc2oc3cc(NCC)c(C)cc3c(-c3ccccc3C(=O)OCC)c-2cc1C
12.5 µM (active)

Requested read-out: AC50. Entry: O=C1C=CC(=O)N1c1ccccc1
25.6 µM (active)

Requested read-out: AC50. Entry: C[C@]12CC[C@H]3C(=CCc4cc(O)ccc43)[C@@H]1CCC2=O
0.555 µM (active)

###

test: ATG_CMV_CIS: Attagene CIS-FACTORIAL HepG2 Assay for human CMV (Internal Marker) (AID 2282928); conditions: HepG2 CMV promoter reporter, transcription factor profiling; actives raise or lower the signal;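 note: endpoint acts as a background internal control marker rather than a target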
The source made the active and inactive calls. The calls were made as follows: active = hit-call score of the fitted dose curve at least 0.9, where 1 is the maximum; inactive = score below 0.9.
Bench note: report the call from active, inactive

Take a look at these entries with their results.
compound: CNS(=O)(=O)C(F)(F)C(F)(F)C(F)(F)C(F)(F)C(F)(F)C(F)(F)C(F)(F)C(F)(F)F
groupLabel: inactive
//
compound: O=C(c1ccccc1)c1ccc(Cl)cc1
groupLabel: inactive
//
compound: OCC(O)CC(F)(F)C(F)(F)C(F)(F)C(F)(F)C(F)(F)C(F)(F)C(F)(F)C(F)(F)F (configuration not stated)
groupLabel: inactive
//
compound: CCOC(=O)CCC(C)=O
groupLabel: inactive

Now look at this entry.
Hey, what did the test say about C[Si](Cl)(Cl)CCC(F)(F)C(F)(F)C(F)(F)C(F)(F)C(F)(F)C(F)(F)F ?
inactive
